Reported selectivity ratio is given for each of the following compounds.
Assay: Selectivity index, ratio of IC50 for mouse RAW264.7 cells to MIC for Mycobacterium tuberculosis H37Rv ATCC 27294
Format: toxicity
Conditions: read-out: Selectivity Index
Please state the value as a number alone, without comment.

compoundstructurestring=O=S(=O)(c1ccccc1)N1CCN(c2noc3ccccc23)CC1 numericreadout=137

Input: So what's the measured selectivity ratio for this one? `Cc1ccc(S(=O)(=O)N2CCN(c3noc4cccc(Cl)c34)CC2)cc1`
Output: 18.5

Input: So what's the measured selectivity ratio for this one? `O=S(=O)(c1ccc(OC(F)(F)F)cc1)N1CCN(c2noc3cccc(Cl)c23)CC1`
Output: 4.74

Input: So what's the measured selectivity ratio for this one? `CS(=O)(=O)N1CCN(c2noc3ccccc23)CC1`
Output: 7.03

Input: So what's the measured selectivity ratio for this one? `Clc1ccc2c(N3CCNCC3)noc2c1`
Output: 8.29

Input: So what's the measured selectivity ratio for this one? `c1ccc2c(N3CCNCC3)noc2c1`
Output: 10.8

Input: So what's the measured selectivity ratio for this one? `O=S(=O)(c1ccc(OC(F)(F)F)cc1)N1CCN(c2noc3cc(Cl)ccc23)CC1`
Output: 11

---

Assay: Cytotoxicity against mouse RAW264.7 cells assessed as inhibition of cell growth at 50 ug/mL after 72 hrs by MTT assay
Type: cell-based
Conditions: read-out: GI
# cutoff 20% applies to inhibition at 72 h, 50 ug/mL; >= gives 1, < gives 0

Answered cases to consult:
compoundstructurestring=O=S(=O)(c1ccccc1)N1CCN(c2noc3ccccc23)CC1 answerlabel=0
compoundstructurestring=Clc1ccc2c(N3CCNCC3)noc2c1 answerlabel=1
compoundstructurestring=O=S(=O)(c1ccc(OC(F)(F)F)cc1)N1CCN(c2noc3cc(Cl)ccc23)CC1 answerlabel=0
compoundstructurestring=CS(=O)(=O)N1CCN(c2noc3ccccc23)CC1 answerlabel=1
compoundstructurestring=Cc1ccc(S(=O)(=O)N2CCN(c3noc4cccc(Cl)c34)CC2)cc1 answerlabel=1
compoundstructurestring=c1ccc2c(N3CCNCC3)noc2c1 answerlabel=1

We now examine a further compound.
Input: In plain terms: is recorded inhibition at 72 h, 50 ug/mL at least 20% for `O=S(=O)(c1ccc(OC(F)(F)F)cc1)N1CCN(c2noc3cccc(Cl)c23)CC1` ?
Output: 1
